method: yeast V-ATPase proton transport modulators, S. cerevisiae, pHLuorin, HTS validation (AID 504600);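 note: plate controls were DMSO for no effect and reference compound for full effect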
settings: S. cerevisiae pHLuorin cytosolic pH, at 10 µM, active compounds read high
quantity: response (%)

INSERT INTO assay_data (compound, observed_measurement) VALUES
  ('CCC(=O)Oc1ccc(/C(CC)=C(\CC)c2ccc(OC(=O)CC)cc2)cc1', 2.77),
  ('COc1ccc(CCCC(=O)O)c(C)c1', -1.31),
  ('CCN1CCN(C(=O)N[C@@H](C(=O)N[C@@H]2C(=O)N3[C@@H]2SC(C)(C)[C@@H]3C(=O)O)c2ccccc2)C(=O)C1=O', 1.38),
  ('Nc1ccc(S(=O)(=O)c2ccc(N)cc2)cc1', -1.03),
  ('Cc1cc(C(=O)NC(CC(C)C)C(=O)O)cc(C)c1[N+](=O)[O-] (configuration not stated)', -4.26),
  ('CNC[C@H](O)c1ccc(O)c(O)c1', 2.95),
  ('c1ccc2c(CC3=NCCN3)cccc2c1', 1.28),
  ('COc1ccc2c(c1)C(=O)CC(c1ccccc1F)O2 (configuration not stated)', -0.49),
  ('O=C(CCNNC(=O)c1ccncc1)NCc1ccccc1', 1.75),
  ('OC(COCc1ccccc1)CN1CCN(Cc2ccc3c(c2)OCO3)CC1 (configuration not stated)', 4.61),
  ('Oc1ccc(Cl)cc1Cc1cc(Cl)ccc1O', 0.73),
  ('Nc1ccc2[nH]ncc2c1', 1.54);
